Readings of inhibition at 3 µM for the listed molecules
TARGET_OF_ASSAY: native Aβ aggregates in human AD brain tissue sections (Homo sapiens, UniProt P05067)
Construct: native Aβ aggregates in human AD brain tissue samples; from tissue; host or cells: human AD brain tissue sections
Sequence (P05067 672-713 limits assumed): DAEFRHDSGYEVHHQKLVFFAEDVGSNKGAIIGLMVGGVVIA
TEST: Aβ in vitro displacement assay (selectivity counterscreen, [3H]Example 3 autoradiography)
Format: binding
RECORDED_CONDITIONS: 3 μM compound; 3 nM [3H]Example 3; human AD brain sections; read-out: sel. counterscreen PCT_INHIB AD @ 3 μM
Report the figure in % without appending any unit label.

# molecule C#CCOc1ccc(C(=O)Nc2ccc(N3CCN(c4ccc(C#N)cn4)CC3)cc2)cc1 [Example 174] ; its inhibition at 3 µM = 100

The value of inhibition at 3 µM measured for the molecule COc1ccc(C(=O)Nc2ccc(N3CCN(c4ccccn4)CC3)cc2)cc1 [Example 3] turned out to be 100

Note to self: inhibition at 3 µM recorded for C#CCOCCOc1ccc(C(=O)Nc2ccc(N3CCN(c4ccc(C#N)cn4)CC3)cc2)cc1 [Example 175] was 98

response.value for C#CCOc1ccc(C(=O)Nc2ccc(N3CCN(c4ccccn4)CC3)cc2)cc1 [Example 177] (field: inhibition at 3 µM) = 97

Measured inhibition at 3 µM, C#CCOCCOc1ccc(C(=O)Nc2ccc(N3CCN(c4ccccn4)CC3)cc2)cc1 [Example 178] : 93

Lab note: next molecule to report on.
Sure, the documented inhibition at 3 µM for C#Cc1ccc(N2CCN(c3ccc(NC(=O)c4ccc(OC)cc4)cc3)CC2)nc1 [Example 176] is 97

* * *

TARGET_OF_ASSAY: native aSyn aggregates in A30P transgenic mouse brain sections (Homo sapiens, UniProt P37840, A30P)
Construct: from tissue; host or cells: brain sections (midbrain and pons as ROI) of A30P transgenic mice, line B6.D2-Tg(Thy1-SNCA*30P)31Pjk
TEST: aSyn in vitro displacement assay ([3H]Example-3 autoradiography)
Format: binding, mutant human aSyn gene)
RECORDED_CONDITIONS: 1 μM compound; 3 nM [3H]Example-3; A30P transgenic mouse brain sections; read-out: PCT_INHIB A30P @ 1 μM (% displacement of [3H]Example-3)
REPORTED_PROPERTY: inhibition at 1 µM (%)
Give the quantity in %, number only.

Example cases with answers are listed next.
Sample CN1CCN(c2ccc(C(=O)Nc3ccc(N4CCN(c5nccs5)CC4)cc3)cc2)CC1 ; inhibition at 1 µM observed: 82

inhibition at 1 µM in this record for COc1ccc(C(=O)Nc2cnc(N3CCN(c4ccccn4)CC3)nc2)cc1 : 85

Measured inhibition at 1 µM, O=C(Nc1ccc(N2CCN(c3ccccn3)CC2)cc1)c1ccc(N2CCOCC2)cc1 : 93

***
For reference, reported inhibition at 1 µM for Cc1ccc(C(=O)Nc2ccc(N3CCN(c4ccccn4)CC3)nc2)c(F)c1 stands at 82

Looking up COc1ccc(C(=O)Nc2ccc(N3CCN(c4ccc(C#N)cc4)CC3)cc2)cc1C , I see its inhibition at 1 µM listed as 91

Record COc1ccc(C(=O)Nc2ccc(N3CCN(c4ccccc4)CC3)cc2)cc1 , field inhibition at 1 µM: 95

Looking up O=C(Nc1ccc(N2CCN(c3ccccn3)CC2)cn1)c1ccc(N2CCOCC2)cc1 , I see its inhibition at 1 µM listed as 94

Query COc1ccc(C(=O)Nc2ccc(N3CCN(c4ccncc4)CC3)cc2)cc1 yields inhibition at 1 µM of 84

Looking up O=C(Nc1ccc(N2CCN(c3ccccn3)CC2)nc1)c1ccc(N2CCOCC2)cc1 , I found its inhibition at 1 µM recorded as 87

* * *

TARGET_OF_ASSAY: native aSyn aggregates in A30P transgenic mouse brain sections (Homo sapiens, UniProt P37840, A30P)
Construct: from tissue; host or cells: brain sections (midbrain and pons as ROI) of A30P transgenic mice, line B6.D2-Tg(Thy1-SNCA*30P)31Pjk
TEST: aSyn in vitro displacement assay ([3H]Example-3 autoradiography)
Assay type: binding, mutant human aSyn gene)
RECORDED_CONDITIONS: 1 μM compound; 3 nM [3H]Example-3; A30P transgenic mouse brain sections; read-out: PCT_INHIB A30P @ 1 μM (% displacement of [3H]Example-3)
Attribute: inhibition at 1 µM
Please reply with the bare figure in % and do not write the unit itself.

Example entries and their recorded answers appear below.
So, N#Cc1ccc(N2CCN(c3ccc(NC(=O)c4ccc(OCC(O)CF)cc4)cc3)CC2)nc1 (racemic) ? Its inhibition at 1 µM was 86

Consider COc1ccc(C(=O)Nc2ccc(N3CCN(c4ccncn4)CC3)cc2)cc1 . Its measured inhibition at 1 µM is 88

For reference, reported inhibition at 1 µM for COc1ccc(C(=O)Nc2ccc(N3CCN(c4ccc(C)cn4)CC3)cc2)cn1 stands at 89

So for COc1ccc(C(=O)Nc2ccc(N3CCN(c4ccc(C#N)cn4)CC3)c(F)c2)cc1 , the logged inhibition at 1 µM turned out to be 96

Documented inhibition at 1 µM of COc1ccc(C(=O)Nc2ccc(N3CCN(c4ccc(C#N)cc4)CC3)cc2)cn1 : 91

More entries:
Consider CN(C)c1ccc(C(=O)Nc2ccc(N3CCN(c4ccccn4)CC3)cc2)cc1 . Its measured inhibition at 1 µM is 90

* * *

TARGET_OF_ASSAY: native aSyn aggregates in A30P transgenic mouse brain sections (Homo sapiens, UniProt P37840, A30P)
Construct: from tissue; host or cells: brain sections (midbrain and pons as ROI) of A30P transgenic mice, line B6.D2-Tg(Thy1-SNCA*30P)31Pjk
TEST: aSyn in vitro displacement assay ([3H]Example-3 autoradiography)
Type: binding, mutant human aSyn gene)
RECORDED_CONDITIONS: 1 μM compound; 3 nM [3H]Example-3; A30P transgenic mouse brain sections; read-out: PCT_INHIB A30P @ 1 μM (% displacement of [3H]Example-3)
Classify by measured inhibition at 1 µM: TRUE if it is equal to or exceeds 90%, FALSE if it is smaller.

Would you please look over these solved cases?
For this molecule, is measured inhibition at 1 µM 90% or higher? COc1ccc(C(=O)Nc2ccc(N3CCN(c4ccc(C#N)cc4)CC3)cn2)cc1 [Example 96] FALSE

Dear colleague, could you confirm whether O=C(Nc1ccc(N2CCN(c3ccccn3)CC2)cc1)c1ccc(O)cc1 [Example 2] has inhibition at 1 µM at or above 90%? FALSE

Form field: inhibition at 1 µM at least 90%? Entry: COc1ccc(C(=O)Nc2ccc(N3CCN(c4ccc(S(C)(=O)=O)cc4)CC3)cc2)cc1 [Example 111] TRUE

Decide: is the reported value of inhibition at 1 µM for COc1ccc(C(=O)Nc2ccc(N3CCN(c4ccccn4)CC3)nc2)cc1 [Example 24] equal to or greater than 90%? TRUE

More entries:
Answer whether inhibition at 1 µM of COc1ccc(C(=O)Nc2ccc(N3CCN(c4ccc(C#N)cc4)CC3)c(C)c2)cc1 [Example 112] is greater than or equal to 90%. FALSE

Please check the record O=C(Nc1ccc(N2CCN(c3ccccn3)CC2)cc1)c1ccc(OCC(O)CF)cc1 (racemic) [Example 125] and state if its inhibition at 1 µM is at or above 90%. FALSE

Is it the case that Cc1ccc(C(=O)Nc2ccc(N3CCN(c4ccccn4)CC3)cn2)cc1 [Example 45] has inhibition at 1 µM reaching or exceeding 90%? TRUE

* * *

TARGET_OF_ASSAY: native Aβ aggregates in human AD brain tissue sections (Homo sapiens)
Construct: native Aβ aggregates in human AD brain tissue samples; from tissue; host or cells: human AD brain tissue sections
TEST: Aβ in vitro displacement assay (selectivity counterscreen, [3H]Example 3 autoradiography)
Format: binding
RECORDED_CONDITIONS: read-out: sel. counterscreen PCT_INHIB AD @ 1 μM (% displacement of [3H]Example 3)
inhibition at 1 µM reference
Please respond with the number in % and leave the unit unwritten.

See these solved cases before continuing.
The molecule identified as CC(C)(C)[Si](C)(C)OC(CF)COc1ccc(C(=O)Nc2ccc(N3CCN(c4ccccn4)CC3)cc2)cc1 (racemic) registered its inhibition at 1 µM at 91

Recorded result, CC(C)(C)[Si](C)(C)OC(CF)COc1ccc(C(=O)Nc2ccc(N3CCN(c4cc(C#N)ccn4)CC3)cc2)cc1 (racemic) , inhibition at 1 µM: 98

CC(C)(C)[Si](C)(C)OC(CF)COc1ccc(C(=O)Nc2ccc(N3CCN(c4ccc(C#N)cc4)CC3)cc2)cc1 (racemic) yielded inhibition at 1 µM of 78

Next:
Given item CC(C)(C)[Si](C)(C)OC(CF)COc1ccc(C(=O)Nc2ccc(N3CCN(c4nccs4)CC3)cc2)cc1 (racemic) , the value recorded as its inhibition at 1 µM is 89

* * *

TARGET_OF_ASSAY: native aSyn aggregates in A30P transgenic mouse brain sections (Homo sapiens, UniProt P37840, A30P)
Construct: from tissue; host or cells: brain sections (midbrain and pons as ROI) of A30P transgenic mice, line B6.D2-Tg(Thy1-SNCA*30P)31Pjk
TEST: aSyn in vitro displacement assay ([3H]Example-3 autoradiography)
Type: binding, mutant human aSyn gene)
RECORDED_CONDITIONS: 1 μM compound; 3 nM [3H]Example-3; A30P transgenic mouse brain sections; read-out: PCT_INHIB A30P @ 1 μM (% displacement of [3H]Example-3)
// reported inhibition at 1 µM for each item listed
# number only, unit % dropped from output

Please review the entries below; each comes with its answer.
The reported inhibition at 1 µM of the compound COc1ccc(C(=O)Nc2cnc(N3CCN(c4ccccn4)CC3)cn2)cc1 was 98

inhibition at 1 µM measured on O=C(Nc1ccc(N2CCN(c3nccs3)CC2)cc1)c1ccc(OCCF)cc1 = 83

The reported inhibition at 1 µM of the compound COc1ccc(C(=O)Nc2ccc(N3CCN(c4cc(OC)ccn4)CC3)cc2)cc1 was 91

***
Lab note: CN1CCN(c2ccc(C(=O)Nc3ccc(N4CCN(c5ccccn5)CC4)nc3)cc2)CC1 gave inhibition at 1 µM of 84
